Observed Water soluble assay (Alpha) values for water-soluble protein/glycoprotein test matrix are listed in what follows.
// no unit string in output, number only

The observed Water soluble assay (Alpha) for CCOC(=O)C(C)C(C)=O (stereo not shown) when tested with water-soluble protein/glycoprotein test matrix stands at 10.9

Reported water-soluble protein/glycoprotein test matrix Water soluble assay (Alpha) for item "CO[Si](CCCNCCC[Si](OC)(OC)OC)(OC)OC" was 25.53

Here "CCN(CC)CCO" was tested on water-soluble protein/glycoprotein test matrix, and its Water soluble assay (Alpha) came to 53.54

###

System: water-soluble protein/glycoprotein test matrix
measure: Water soluble assay (Alpha), parenthetical call versus in vivo

compound: CCN(CC)CCO [Diethylethanolamine]
measured: (TP)
//
compound: CCOC(=O)C(C)C(C)=O (stereo not shown) [Ethyl 2-methyl]
measured: (FN)
//
compound: CCOC(=O)C(C)(C)O [Ethyl a-hydroxyisobutyrate]
measured: (TP)
//
compound: CO[Si](CCCNCCC[Si](OC)(OC)OC)(OC)OC [Organofunctional Silane]
measured: (TP)
